Hey, just so you know, these numbers are from PubChem BioAssay (NCATS).

System: ECU
assay_details: qHTS profiling for inhibitors of Plasmodium falciparum proliferation (AID 504749); further: nearly all actives have a fitted effect of over 60% in size
settings: P. falciparum in erythrocytes, SYBR Green DNA, 72 h; series mostly up to 28.7 µM
Inconclusive results are not listed. Calls of active or inactive are those of the source. The call rests on the fitted dose curve; in most records, active means well fitted inhibition curve with a large enough effect; inconclusive means small, poorly fitted or top-dose-only effect; inactive means flat fitted curve, though single readings scatter. Bridge positions count the residues as written; N and C are the ends. Square brackets hold non-standard residues; d marks the D form. Peptide text beside a SMILES is read from it. * marks the point of attachment. Octanoyl(6-Me) = CCC(C)CCCCC(=O)*; Dab = NCC[CH](N)C(=O)O
result_type: outcome

Query block: Using the record for "CC(C)CN(C[C@@H](O)[C@H](Cc1ccccc1)NC(=O)O[C@H]1CCOC1)S(=O)(=O)c1ccc(N)cc1" , report its outcome.
Result block: inactive

Query block: Using the record for CCC(C)CCCCC(=O)NC(CCN)C(=O)NC(C(=O)NC(CCN)C(=O)NC1CCNC(=O)C(C(C)O)NC(=O)C(CCN)NC(=O)C(CCN)NC(=O)C(CC(C)C)NC(=O)C(Cc2ccccc2)NC(=O)C(CCN)NC1=O)C(C)O (configuration not stated) ({Octanoyl(6-Me)}-[Dab]T[Dab][Dab][Dab]FL[Dab][Dab]T; lactam 4-C; configuration not given here) , report its outcome.
Result block: inactive
